Below, each entry is listed with its recorded MCR5 EC50 (nM); cAMP production, LANCE cAMP assay, CHO-MCR5 cells, cell pool C.
# measuredTarget: MCR5 (human, UniProt P33032 1-325)
# Sequence (P33032 whole entry): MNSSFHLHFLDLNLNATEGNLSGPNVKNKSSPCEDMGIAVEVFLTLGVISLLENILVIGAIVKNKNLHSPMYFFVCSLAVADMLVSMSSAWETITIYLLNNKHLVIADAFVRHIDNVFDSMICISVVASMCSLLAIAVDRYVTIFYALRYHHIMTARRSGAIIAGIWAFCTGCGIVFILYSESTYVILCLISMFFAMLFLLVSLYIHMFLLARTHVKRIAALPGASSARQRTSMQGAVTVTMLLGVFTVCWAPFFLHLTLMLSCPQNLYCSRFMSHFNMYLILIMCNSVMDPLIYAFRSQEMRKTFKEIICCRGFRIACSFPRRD
# assayDetails: cell-based or functional assay
Square brackets hold non-standard residues; d marks the D form. Ends that are not written are not given here. Nle = CCCC[C@H](N)C(=O)O
Only the number, expressed in nM, is required.

Example cases with answers are listed next.
SYSMEHFRWGKPVGAARRPVKVYP [ACTH1-24-point-1-2]
275
SYSMEHFRWGKPVGKKRRAVKVYPSYS[Nle]EH[dF]RWGKPV [ACTH1-24-point-5-NDP-α-MSH]
28

For the next question, use this binder.
Item under review: SYSMEHFRWGKPVGKKRRAVKVYPGGGGSGGSYS[Nle]EH[dF]RWGKPV [ACTH1-24-point-5-7aa-NDP-α-MSH] . Reported MCR5 EC50 (nM); cAMP production, LANCE cAMP assay, CHO-MCR5 cells, cell pool C? 12

The measurements presented in this section are drawn from patent US20190054150A1.
